- Run Description: yeast display, Sf9 membrane polyspecificity reagent, FACS + sequencing; frameworks hold sequencing errors
Endpoint Label: polyreactivity (PSR sort gate)

Recorded polyreactivity (PSR sort gate), per entry:
INSERT INTO results (construct_sequence, endpoint_label, endpoint_result) VALUES
  ('QVQLVESGGGLVQAGGTLRLSCAASGSTFVDYAMGWYRQAPGKERELVAGINGSGGSTYYADSVKGRFTISRDNAKNTVYLQMNSLKPEDTAVYYCAKDGSNRLALPAWDYNYWGQGTQVTVSS', 'polyreactivity (PSR sort gate)', 'low polyreactivity'),
  ('QVQLVESGGGLVQAGGSLRLSCAASGSNFVTYAMGWSRQAPGKERELVAAISSSGTSTYYADSVKGRFTISRDNAKNTVYLQMNSLKPEDTAVYYCAAYLRGYDYGYWGQGTQVTVSS', 'polyreactivity (PSR sort gate)', 'high polyreactivity'),
  ('QVQFVESGGGLVQAGGSLRLSCAASGSTFQGNAMGWYRQAPGKERELVAAISRSGGRTYYADSVKGRFTISRDNAKNTVYLQMNSLKPEDTAVYYCAADAYTGDIPYWWPWNNEYDYWGQGTQVTVSS', 'polyreactivity (PSR sort gate)', 'low polyreactivity'),
  ('QVQLVESGGGLVQAGGSLRLSCAASGSIFDSYAMGWYRQAPGKDRELVAAISGNSDSTYYADSVKGRFTISRDNATNTVYSQMNSLKAEDTAVYNCNARGRLPYLEFYYWGQGTQVTVSS', 'polyreactivity (PSR sort gate)', 'low polyreactivity'),
  ('QVQLVESGGGLVQAGGSLRLSCAASGSIFEQYAMGWYRKAPGKERELVAAISSGGSTNYADSVKGRFTISRDNAKNTVYLQMNSLKPEDTAVYYCAAAYYTVGWLYYDYWYPFAYYYWGQGTQVTVSS', 'polyreactivity (PSR sort gate)', 'low polyreactivity'),
  ('QVQLVESGGRLVQAGGSLRLSCAASGRTIYSNTMGWYRQAPGKEREFVAAIPSIVGSTYYADSVKGRFTISRDNAKNTVYLQMNSLKPEDTAVYYCAVTDYYSYLLRYDSWGQGTQVTVSS', 'polyreactivity (PSR sort gate)', 'low polyreactivity'),
  ('QVQLVESGGGLVQAGGSLRLSCAASGRTFSKYTMGWYRQAPGKERELVAAIDRSGGSTYYADSVKGRFSISRDNAKNTVYLQMNSLKPEDTAVYYCNTGLRYYSYRRDYWGQGTQVTVSS', 'polyreactivity (PSR sort gate)', 'high polyreactivity'),
  ('QVQLVESGGGLVQAGGSLRLSCAASGSIFFWYTMGWYRQAPGKERELVATITGSGSSTTYADSVKGRFTISRDYAKNTVYLQMNSLKPEDTAVYYCAAADIIDHSFPYDYWGQGTQVTVSS', 'polyreactivity (PSR sort gate)', 'low polyreactivity'),
  ('QVQLVESGGGLVQAGGSLRLSCAASGFTFKYYAMGWYRQAPGKERELVAAISSGATTYYADSVKGRFTISRDNAKNTVYLQMNSLKPEDTAVYYCNANRFRRYDWGQGTLVTVSS', 'polyreactivity (PSR sort gate)', 'high polyreactivity'),
  ('QVQLVESGGGLVQAGGSLRLSCAASGSIFSSYAMGWYRPAPGNERELVAAISKSGGSTYYADSVKGRFTISRDNAKNTVYLQMNSLKPEDTAVYYCAARTRQLEYNSWGQGTQVTVSS', 'polyreactivity (PSR sort gate)', 'high polyreactivity');

# batch: return polyreactivity (PSR sort gate) for each of the 4 sequences below
1. QVQLVESGGGLVQAGGSLRLSCAASGFTFEYNAMGWYRQAPGKERELVAAISRSGGSTYYADSVKGRFTISRDNAKNTVYLQMNSLIPEDTAVYYCAAEPYPLPSYGYWGQGTQVTVSS
2. QVQLEESGGGLVKAGGSLSLSCAASGRTFYSYAMGWYRQAPGKERELVAAISAGGSTYYADSVQGRFTSSRDNAMNTLNLQMTSLKPEDTAVYYCAATYSYYYARYHYWGQGTQVTVSS
3. QVQLVESGVGLVQAGGSLRLSCAASGITFRSYAMGWYRQAPGKERELVAAIRSGGSTSYADSVKGRFTISRDNAKNTVYLQMNSLKPEDTAVYYCAAGGYVPLPDITFWKFGYWGQGTQVTVSS
4. QVQLVESGGGLVQAGGSLRLSCAASGFTFPRNVMGWYRQAPGKERELVAAISRSGSRTSYADSVKGRFTISRDNAKNTVYLQMNSVKPEDTAVYYCATSSGVGGYAAYYYWGQGTQVTVSS

Resp:
1: high polyreactivity; 2: high polyreactivity; 3: low polyreactivity; 4: high polyreactivity
